Data provenance: patent US20260274955A1

target: T1, Ab-1; experiment: competition ELISA, peptide titrated vs 1 nM Ab-1 binding plate-bound CD28
T1 construct: also called anti-CD28 scFv harbored in Ab-1
No end group written: not given here.
Could you please report measured log10(IC50) for the items listed next?
Could you please treat all values as log10 of IC50 in nM?

If you can, please state the reported log10(IC50) value of HDWCPRDLWVHCFA (cysteine pairing not given here; also: biotinylated, site not given here) [Peptide-9] .
3.34

Same question for YDWCPRDLWVHCFA (cysteine pairing not given here; also: biotinylated, site not given here) [Peptide-18] please.
3.51

Same question for DDWCPRDLWVHCFA (cysteine pairing not given here; also: biotinylated, site not given here) [Peptide-5] please.
3.65

Same question for QDWCPRDLWVHCFA (cysteine pairing not given here; also: biotinylated, site not given here) [Peptide-6] please.
2.52

Same question for RDWCPRDLWVHCFA (cysteine pairing not given here; also: biotinylated, site not given here) [Peptide-3] please.
2.23
